Biological target: human liver GK (Homo sapiens, UniProt P35557)
Construct: GST (glutathione S-transferase) (N)
Test: GK activation test
Settings: test compound concentration needed to activate 50% of maximum activation ability; 4 mM 14C-labeled glucose, 2 mM ATP, room temperature, 20 minutes
Readout Type: EC50

Observe how each entry below is paired with its result.
>  <Compound>
CC(C)Oc1ccc(C(C[C@H]2CCC(=O)N2)c2ccc(Cl)c(=O)[nH]2)cc1Cl (single isomer, unassigned) [Example 4-296]

>  <Tested Target>
human liver GK (Homo sapiens, UniProt P35557)

>  <Readout Type>
EC50

>  <Result Value>
500 to 3000 nM

$$$$
>  <Compound>
CC(C)c1ccc(/C(=C\[C@H]2CCC(=O)N2)c2ccc(C3CC3)c(=O)[nH]2)cc1Cl

>  <Tested Target>
human liver GK (Homo sapiens, UniProt P35557)

>  <Readout Type>
EC50

>  <Result Value>
10 to 500 nM

$$$$
>  <Compound>
CCc1ccc(/C(=C/[C@H]2CCC(=O)C2)c2ccc(SC)c(Cl)c2)[nH]c1=O

>  <Tested Target>
human liver GK (Homo sapiens, UniProt P35557)

>  <Readout Type>
EC50

>  <Result Value>
10 to 500 nM

$$$$
>  <Compound>
O=C1CC[C@H](/C=C(\c2ccc(S(=O)(=O)Cc3ccccc3)cc2)c2ccc(C3CC3)c(=O)[nH]2)N1

>  <Tested Target>
human liver GK (Homo sapiens, UniProt P35557)

>  <Readout Type>
EC50

>  <Result Value>
10 to 500 nM

$$$$
>  <Compound>
CS(=O)(=O)c1ccc(/C(=C\CCO)c2ccc(C3CC3)c(=O)[nH]2)cc1

>  <Tested Target>
human liver GK (Homo sapiens, UniProt P35557)

>  <Readout Type>
EC50

>  <Result Value>
3000 to 10000 nM

$$$$
>  <Compound>
O=C1CC[C@H](/C=C(\c2ccc(S(=O)(=O)C3CC3)cc2)c2ccc(C3CC3)c(=O)[nH]2)N1

>  <Tested Target>
human liver GK (Homo sapiens, UniProt P35557)

>  <Readout Type>
EC50

>  <Result Value>
10 to 500 nM

$$$$

Attention now turns to another entry.
Qu. API: value(readout= EC50, system= human liver GK (Homo sapiens, UniProt P35557), query= O=C1CC[C@H](/C=C(\c2cccc(SC3CC3)c2)c2ccc(Cl)c(=O)[nH]2)N1 )
Ans. 3000 to 10000 nM

----------
Biological target: human liver GK (Homo sapiens)
Construct: GST (glutathione S-transferase) (N)
Sequence (P35557 1-466 isoform P35557-2): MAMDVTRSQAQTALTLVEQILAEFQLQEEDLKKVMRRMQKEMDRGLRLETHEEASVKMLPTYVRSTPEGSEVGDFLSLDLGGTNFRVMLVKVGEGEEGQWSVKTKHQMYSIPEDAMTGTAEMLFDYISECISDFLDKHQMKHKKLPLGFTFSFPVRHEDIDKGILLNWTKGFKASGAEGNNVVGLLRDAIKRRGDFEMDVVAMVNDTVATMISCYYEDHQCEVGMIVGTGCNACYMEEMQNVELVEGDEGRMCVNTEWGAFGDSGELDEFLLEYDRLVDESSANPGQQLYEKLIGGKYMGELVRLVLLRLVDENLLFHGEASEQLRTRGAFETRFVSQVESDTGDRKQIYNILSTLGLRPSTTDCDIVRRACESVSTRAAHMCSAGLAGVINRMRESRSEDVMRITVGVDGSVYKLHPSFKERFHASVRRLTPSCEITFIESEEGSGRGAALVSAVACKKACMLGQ
Experiment: GK activation test
Details: test compound concentration needed to activate 50% of maximum activation ability; 4 mM 14C-labeled glucose, 2 mM ATP, room temperature, 20 minutes
pEC50: −log10 of the molar value.
Readout Type: pEC50

Qu. I have this molecule here, CCOc1ccc(C(C[C@H]2CCC(=O)N2)c2ccc(C3CC3)c(=O)[nH]2)cc1 (single isomer, unassigned) , and I need its recorded pEC50.
Ans. 5.52 to 6.30

Qu. For CSc1ccc(/C(=C\C2CCCC2)c2ccc(Cl)c(=O)[nH]2)cc1 , what is its reported pEC50?
Ans. 5.52 to 6.30

Qu. I am curious: what pEC50 value has been reported for CCCOc1ccc(/C(=C\[C@H]2CCC(=O)N2)c2ccc(C3CC3)c(=O)[nH]2)cc1Cl ?
Ans. 6.30 to 8.00

Qu. Which pEC50 is listed for Cc1cc(C(C[C@H]2CCC(=O)N2)c2ccc(C3CC3)c(=O)[nH]2)ccc1C(F)F (single isomer, unassigned) [Example 4-232] ?
Ans. 5.00 to 5.52

Provenance of the data: patent US8822503B2
